This collection of values is drawn from PubChem BioAssay (NCI).

# Test system: SNB-19 CNS
# measurement.notes: NCI-60 one-dose screen, 48 h
# experimental.setup: 10 µM
# Description: Growth inhibition of the SNB-19 human tumor cell line is measured as a screen for anti-cancer activity. Cells are grown in 96 well plates and exposed to the test compound for 48 hours. Compounds are tested at a single concentration, which is 10^-5 M for most compounds. The reported endpoint is percent growth (GI% or GIPRCNT), where numbers from 0 - 100% represent growth inhibition, and numbers from -100% - 0 represent cell death. For example, a value of 40 represents 60% growth inhibition. […]
Compounds without any hit were thinned out: in the full panel of roughly 83,000, 20% have a hit. The source made the active and inactive calls. Rule for the calls: active = growth percent below 10; inactive = the rest.
In this exercise, the only acceptable responses are TRUE (active), FALSE (inactive)

Examples from the recorded data:
INSERT INTO assay_data (compound, assigned_label) VALUES
  ('NS(=O)(=O)c1ccc(N=Nc2c(O)n(CC(=O)Nc3ccccc3Br)c3ccccc23)cc1', 'FALSE'),
  ('COc1ccccc1C(=O)NNC(=O)CSc1nc2c(c(=O)[nH]1)CCCC2', 'FALSE'),
  ('Cc1ccc(C(=O)NCCCNc2nc(Nc3ccc(N4CCN(C)CC4)cc3)nc3ccsc23)cc1', 'FALSE'),
  ('CCCCOc1ccc(Nc2nc3ccccc3nc2Nc2ccc(OCCCC)cc2)cc1', 'FALSE'),
  ('O=C(c1ccc(O)cc1)C1[C@H](c2ccc(Br)cc2)[C@@H](c2ccccc2)NC12C(=O)Nc1ccccc12 (some centres not stated)', 'FALSE');

Tell me the recorded outcome of this test for Nc1nc(Nc2ccc(Cl)cc2)nn1Cc1cccc(Br)c1 .
FALSE

GET /call?item= O=C1CCC(N2Cc3cc(CC(=O)Nc4ccc(N5CCCCC5)cc4)ccc3C2=O)C(=O)N1 (configuration not stated) returns the recorded outcome of this test.
FALSE

Kindly provide the recorded test outcome for the following compound: COc1ccc(C2NC(=S)NC(C)=C2C(=O)OC(C)C)cc1OC (configuration not stated)
FALSE

Write down the call the test reported for this compound. Item: O=C(c1ccc([N+](=O)[O-])c([N+](=O)[O-])c1O)n1[nH]c(=O)c2ccccc2c1=O
FALSE

So what was the verdict on COc1cccc(COc2ccc(/C=C3\Oc4cc(O)ccc4C3=O)cc2)c1 in this test?
FALSE

====

# System: T-47D breast
# measurement.notes: NCI-60 one-dose screen, 48 h (100 = growth as untreated, 0 = no growth, -100 = all killed)
# experimental.setup: 10 µM
This is part of a sample that, as a whole, favours compounds with a hit. Of some 83,000 tested, about 20% had one in any assay.
Mark TRUE for growth under 10%, FALSE if at or over.

The following molecules have reported results that may help.
INSERT INTO assay_data (molecule, assigned_label) VALUES
  ('O=C(NCCCCC(c1ccc(F)cc1)c1ccc(F)cc1)NCCCc1cccnc1', 'TRUE'),
  ('CN1CCCN(Cc2ccc(C(=O)Nc3cccc(Nc4ccc5c(O)cccc5n4)c3)cc2C(F)(F)F)CC1', 'TRUE'),
  ('COC1CC(Cn2cc(COc3ccc4ccc(=O)oc4c3)nn2)C(OCc2ccccc2)C(OCc2ccccc2)C1OCc1ccccc1 (stereo not given)', 'FALSE'),
  ('C#CCNC(=O)CCC(=O)OC[C@]12CC[C@@H](C(=C)C)[C@@H]1C1CC[C@@H]3[C@@]4(C)CCCNC(C)(C)[C@@H]4CC[C@@]3(C)[C@]1(C)CC2 (stereo not given in full)', 'FALSE');

I wonder whether Oc1ccc(/C=C2\CCCc3cc4ccc(O)cc4[o+]c32)c(O)c1 has growth below 10%. Can you tell?
FALSE

====

# Test system: SNB-19 CNS
# measurement.notes: NCI-60 one-dose screen, 48 h (100 = growth as untreated, 0 = no growth, -100 = all killed)
# experimental.setup: 10 µM
# Method: Growth inhibition of the SNB-19 human tumor cell line is measured as a screen for anti-cancer activity. Cells are grown in 96 well plates and exposed to the test compound for 48 hours. Compounds are tested at a single concentration, which is 10^-5 M for most compounds. The reported endpoint is percent growth (GI% or GIPRCNT), where numbers from 0 - 100% represent growth inhibition, and numbers from -100% - 0 represent cell death. For example, a value of 40 represents 60% growth inhibition. […]
This is part of a sample that, as a whole, favours compounds with a hit. Of some 83,000 tested, about 20% had one in any assay.
Rule: growth below 40% gives rule met, anything at or above gives rule not met.

See these solved cases before continuing.
INSERT INTO measurements (molecule, assigned_label) VALUES
  ('Cc1nc2c(cnn2-c2ccccc2)c(=O)n1-c1ccc(NC(=O)c2ccc(F)cc2)cc1', 'rule not met'),
  ('O=C1NC(=NC23CC4CC(CC(C4)C2)C3)N/C1=C\c1ccc2ncoc2c1', 'rule met'),
  ('Cc1ccc(C(C)C)cc1NC(=O)c1ccccc1O', 'rule met');

Find out if reported growth for C=C1CCC2C3(C)COC(c4ccccc4F)OC3CCC2(C)C1C/C=C1/C(=O)OCC1O (stereo not drawn) is less than 40%
rule met

growth under 40%? Item: Cc1ccc(C(=O)N/C(=C2/OCCN2C)[P+](c2ccccc2)(c2ccccc2)c2ccccc2)cc1
rule not met

Dear reviewer, please state whether N#Cc1c(-c2ccc(F)cc2)nc(SCc2ccc([N+](=O)[O-])cc2)nc1N1CCOCC1 has growth strictly beneath 40%.
rule not met

Does the reported growth of CN(C)CCNC(=O)OCCCCOc1cc(O)c2c(=O)cc(-c3ccccc3)oc2c1 stay below 40%?
rule met

Dear reviewer, please state whether COc1cc(NC(=O)CSc2nnc(-c3ccc4nc(-c5ccc(Cl)cc5)[nH]c4c3)o2)cc(OC)c1OC has growth strictly beneath 40%.
rule not met

Lab note: growth threshold 40%. Does this molecule come in strictly under it? Clc1ccc2c(N/N=C/c3c[nH]c4ccc(Br)cc34)ccnc2c1
rule met

====

# Test system: HS 578T breast
# measurement.notes: NCI-60 one-dose screen, 48 h (100 = growth as untreated, 0 = no growth, -100 = all killed)
# experimental.setup: 10 µM
The panel holds about 83,000 compounds, 20% with a hit somewhere; the sample as a whole holds those more often.
Please assign a class to every record based on measured growth, with ranges I (below 30%), II (30% to below 70%), III (70% or more)

Which band does Cc1ccc(-c2nc3ccc(C(=O)N=Nc4c(O)[nH]c5ccc(Br)cc45)cc3[nH]2)cc1 fall in?
III

Band for Cc1cccc(NC(=O)CSc2nc3ccc(F)cc3c(=O)n2-c2ccc(Cl)cc2)c1C ?
I

====

# Tested on: MDA-MB-231 breast
# measurement.notes: NCI-60 one-dose screen, 48 h (100 = growth as untreated, 0 = no growth, -100 = all killed)
# experimental.setup: 10 µM
Compounds without any hit were thinned out: in the full panel of roughly 83,000, 20% have a hit. The source made the active and inactive calls. The calls were made as follows: active = growth percent below 10; inactive = the rest.
readout.label: growth

Sample answers from the record:
INSERT INTO assay_data (compound, assayed_target, recorded_result) VALUES
  ('N#Cc1ccc(-c2nn(-c3ccc(C(=O)O)cc3)cc2CNc2cc(Cl)cc(Cl)c2)cc1', 'MDA-MB-231 breast', '80.2% (inactive)'),
  ('CCCn1c(=O)c2[nH]c(-c3ccc(OCc4nc5ccc(C)cc5[nH]4)cc3)nc2n(CCC)c1=O', 'MDA-MB-231 breast', '-50.7% (active)'),
  ('Cc1ccc(C(C)C)cc1NC(=O)c1ccccc1O', 'MDA-MB-231 breast', '65.1% (inactive)');

API: the following record is the query input.
Give the measured growth of CCOC(=O)C(Cc1ccccc1)N1C(=O)/C(=C/N2N=C(c3ccc(OC)cc3)CC2c2ccc3ccccc3c2)SC1=S (stereo not drawn) .
3.55% (active)

====

# Test system: NCI-H226 lung
# measurement.notes: NCI-60 one-dose screen, 48 h (100 = growth as untreated, 0 = no growth, -100 = all killed)
# experimental.setup: 10 µM
The panel holds about 83,000 compounds, 20% with a hit somewhere; the sample as a whole holds those more often.
Parameter threshold = -30%. Response is 1 when growth meets or exceeds it, else 0.

These recorded examples may help you get a feel for the data.
INSERT INTO results (compound, assigned_label) VALUES
  ('O=C(NO)c1ccc(-c2nc3ccc4[nH]ncc4c3c3c2CCCC3)cc1', 1),
  ('CC1=N/C(=C\c2ccc(N(C)C)cc2)C(=O)N1CCc1ccc(S(N)(=O)=O)cc1', 1),
  ('CCOC(=O)c1c(CSc2ccccc2)n(C)c2cc(CN(C)C)c(O)c(CN(C)C)c12', 1);

Please tell me: is the compound C=C1CCC2C3(C)COC(c4ccccc4F)OC3CCC2(C)C1C/C=C1/C(=O)OCC1O (stereo unspecified) at or over -30% in terms of growth?
1

# check: growth of C#CCNC(=O)CCC(=O)OC[C@]12CC[C@@H](C(=C)C)[C@@H]1C1CC[C@@H]3[C@@]4(C)CCCNC(C)(C)[C@@H]4CC[C@@]3(C)[C@]1(C)CC2 (stereo partly specified) is greater than or equal to -30%
0

Is the recorded value of growth equal to or greater than -30% for this compound? O=C(CSc1nnc(-c2ccc3nc(-c4ccc(Cl)cc4)[nH]c3c2)o1)Nc1ccc(Br)cc1
0
